system: NCI-H23 lung; test: NCI-60 one-dose screen, 48 h (100 = growth as untreated, 0 = no growth, -100 = all killed); conditions: 10 µM
This is part of a sample that, as a whole, favours compounds with a hit. Of some 83,000 tested, about 20% had one in any assay.
Parameter class (string): assigned from measured growth. Ranges: lower band (below 10%), central band (10% to below 70%), upper band (70% or more)

Some solved cases for reference:
COc1ccc(-c2nc(-c3nc4cc(Cl)c(F)cc4[nH]3)c3ccccn23)cc1    upper band
CC1(C)N=C(N)N=C(N)N1c1ccc(CCc2ccccc2)c(Cl)c1    central band
O=C1Nc2ccc(Cl)cc2/C1=C\c1c(-c2ccc(Cl)cc2)nc2sc(C3CC3)nn12    central band

Please turn your attention to the following entry.
Which of the defined bands does the recorded growth of CCCCCCN1C(=O)C2=C(c3ccc(Cl)cc3)Nc3c(c(C)nn3-c3ccccc3)C2c2ccccc21 (stereo unspecified) sit within?
upper band
